Measured growth values are reported for all entries that follow.
- Tested on: SF-268 CNS
- assay-notes: NCI-60 one-dose screen, 48 h (100 = growth as untreated, 0 = no growth, -100 = all killed)
- condition-details: 10 µM unless noted
About 83,000 compounds went through this panel and 20% of them were active in at least one assay; those are over-represented in the sample as a whole.
Answer format: numeric, % implied, no suffix.

# input growth lookup needed for "COC(=O)[C@@H]1[C@H]2C[C@H]3c4[nH]c5cc(OC)ccc5c4CCN3C[C@@H]2C[C@H](OC(=O)/C=C/c2ccnc(OC)c2)[C@H]1OC" , thanks.
# output 84.1

# input growth lookup needed for "COc1cc(-c2cc(-c3nc4ccccc4[nH]3)[nH]n2)cc(OC)c1OC" , thanks.
# output 72.5

# input growth lookup needed for "COc1ccc(C2(Cl)c3ccccc3N(c3ccccc3)c3ccccc32)cc1" , thanks.
# output 15.4

# input growth lookup needed for COc1cc(/C=C2\C(=O)N(CC(O)COc3cc(O)c4c(=O)cc(-c5ccccc5)oc4c3)c3ccccc32)cc(OC)c1O (centres undefined) , thanks.
# output 80

Just for reference, PubChem BioAssay (NCI) is where these values come from.
